Experiment: NCI Yeast Anticancer Drug Screen. Data for the bub3 strain (AID 167)
Settings: S. cerevisiae bub3 mutant strain, at 100.0 µM
About 79,000 compounds went through this panel and 15% of them were active in at least one assay; those are over-represented in the sample as a whole. Calls of active or inactive are those of the source. Cut-off read from the data, not from the text of the source: active = growth inhibition above about 70%; inactive = the rest.
Answer with one of the outcomes given here: active, inactive

Brc1ccccc1-c1ncc(-c2ccccc2)o1 | active

Ask | What call does the record list for C#CCN(Cc1ccc2nc(N)[nH]c(=O)c2c1)c1ccc(C(=O)NC(CCC(=O)O)C(=O)O)cc1 (stereo not given) ?
Reply | inactive

Ask | Next entry: COC(=O)CCC(NC(=S)N/N=C(\C)c1ccccn1)C(=O)OC (stereo not given)
Reply | active

Ask | Repeat for the following compound: Cc1cc(C)c(NC(=S)NC(=O)c2ccccc2)cc1C
Reply | inactive

Ask | Proceed to CSc1nc(C)c(CCOC(C)=O)c(N=P(c2ccccc2)(c2ccccc2)c2ccccc2)n1
Reply | active

Ask | Then CC[N+]1(C)CCC(O)(c2ccc(OC)cc2)C(C(=O)c2ccc(OC)cc2)C1 (stereo not given) ?
Reply | inactive

Ask | Also, CCOC(=O)CC1(C(=O)OCC)c2[nH]c3ccccc3c2CCN1Cc1ccccc1 (stereo not given) please.
Reply | inactive

----------
Experiment: NCI Yeast Anticancer Drug Screen. Data for the rad14 strain (AID 159);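 note: 0% = growth of vehicle-treated control cultures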
Conditions: S. cerevisiae rad14 strain growth inhibition; at 11.0 µM; stronger effect = higher value
The panel holds about 79,000 compounds, 15% with a hit somewhere; the sample as a whole holds those more often.
Hi, to clarify the labels: yes (1) covers growth inhibition from 20% upward, no (0) covers anything below 20%.

Reference set, count: 4
COC(=O)CCC(NC(=S)N/N=C(\C)c1ccccn1)C(=O)OC (stereo not given) | yes (1)
COc1ccc(N=CN(C)C)c(C)c1 | no (0)
CN(C)[C@@H]1C(=O)C(C(N)=O)=C(O)[C@@]2(O)C(=O)C3=C(O)c4c(O)cccc4C[C@H]3C[C@@H]12 | yes (1)
C=C(C(=C)n1nnc(C(=O)OC)c1C(=O)OC)n1nnc(C(=O)OC)c1C(=O)OC | no (0)

Ask | In plain terms: is recorded growth inhibition at least 20% for COc1ccc(C/C=N/Nc2ccc([N+](=O)[O-])cc2)cc1OC ?
Reply | yes (1)

----------
Experiment: NCI Yeast Anticancer Drug Screen. Data for the mgt1 strain (AID 153)
Conditions: S. cerevisiae mgt1 mutant growth inhibition; at 33.0 µM; stronger effect = higher value
About 79,000 compounds went through this panel and 15% of them were active in at least one assay; those are over-represented in the sample as a whole.
Classes based on growth inhibition: class 1: < 10%; class 2: ≥ 10% and < 40%; class 3: ≥ 40%

Ask | Please let me know in which category the item CCN(CC)CCOc1cc(C)c2cc(Cc3ccccc3)ccc2n1 belongs.
Reply | class 2

Ask | Also need O=C1OC(C2=CC(=O)c3ccccc3C2=O)C(Cl)=C1Cl (stereo not given) , thanks.
Reply | class 2

Ask | Moving on to Oc1ccc2ccccc2c1CCc1c(O)ccc2ccccc12
Reply | class 3

Ask | Also, CC(C)(C)N=C(NO)c1ccccc1 please.
Reply | class 2

Ask | Check CN(C)c1ccc2c(SCC(=O)OCC(=O)[C@@]3(O)CC[C@H]4[C@@H]5CCC6=CC(=O)C=C[C@]6(C)[C@H]5C(=O)C[C@@]43C)c3ccc(N(C)C)cc3nc2c1 too.
Reply | class 3

Ask | Try CCC(C)(C)c1ccc(Oc2cccc(C(=O)O)c2)cc1 next.
Reply | class 3

Ask | Repeat with Cc1ccc(NC(=O)/C(CC2N=c3c(ccc4c(O)c5ccccc5c(O)c34)=NC2O)=N/NC(C)(C)C)cc1 (stereo not given)
Reply | class 2

// provenance: PubChem BioAssay (NCI)
